# testSystem: human Cystic Fibrosis Transmembrane Conductance Regulator (CFTR) harboring the ΔF508 mutation (Homo sapiens, UniProt P13569, DEL508-508)
# Sequence (P13569 with tags, fused parts or gaps DEL508-508): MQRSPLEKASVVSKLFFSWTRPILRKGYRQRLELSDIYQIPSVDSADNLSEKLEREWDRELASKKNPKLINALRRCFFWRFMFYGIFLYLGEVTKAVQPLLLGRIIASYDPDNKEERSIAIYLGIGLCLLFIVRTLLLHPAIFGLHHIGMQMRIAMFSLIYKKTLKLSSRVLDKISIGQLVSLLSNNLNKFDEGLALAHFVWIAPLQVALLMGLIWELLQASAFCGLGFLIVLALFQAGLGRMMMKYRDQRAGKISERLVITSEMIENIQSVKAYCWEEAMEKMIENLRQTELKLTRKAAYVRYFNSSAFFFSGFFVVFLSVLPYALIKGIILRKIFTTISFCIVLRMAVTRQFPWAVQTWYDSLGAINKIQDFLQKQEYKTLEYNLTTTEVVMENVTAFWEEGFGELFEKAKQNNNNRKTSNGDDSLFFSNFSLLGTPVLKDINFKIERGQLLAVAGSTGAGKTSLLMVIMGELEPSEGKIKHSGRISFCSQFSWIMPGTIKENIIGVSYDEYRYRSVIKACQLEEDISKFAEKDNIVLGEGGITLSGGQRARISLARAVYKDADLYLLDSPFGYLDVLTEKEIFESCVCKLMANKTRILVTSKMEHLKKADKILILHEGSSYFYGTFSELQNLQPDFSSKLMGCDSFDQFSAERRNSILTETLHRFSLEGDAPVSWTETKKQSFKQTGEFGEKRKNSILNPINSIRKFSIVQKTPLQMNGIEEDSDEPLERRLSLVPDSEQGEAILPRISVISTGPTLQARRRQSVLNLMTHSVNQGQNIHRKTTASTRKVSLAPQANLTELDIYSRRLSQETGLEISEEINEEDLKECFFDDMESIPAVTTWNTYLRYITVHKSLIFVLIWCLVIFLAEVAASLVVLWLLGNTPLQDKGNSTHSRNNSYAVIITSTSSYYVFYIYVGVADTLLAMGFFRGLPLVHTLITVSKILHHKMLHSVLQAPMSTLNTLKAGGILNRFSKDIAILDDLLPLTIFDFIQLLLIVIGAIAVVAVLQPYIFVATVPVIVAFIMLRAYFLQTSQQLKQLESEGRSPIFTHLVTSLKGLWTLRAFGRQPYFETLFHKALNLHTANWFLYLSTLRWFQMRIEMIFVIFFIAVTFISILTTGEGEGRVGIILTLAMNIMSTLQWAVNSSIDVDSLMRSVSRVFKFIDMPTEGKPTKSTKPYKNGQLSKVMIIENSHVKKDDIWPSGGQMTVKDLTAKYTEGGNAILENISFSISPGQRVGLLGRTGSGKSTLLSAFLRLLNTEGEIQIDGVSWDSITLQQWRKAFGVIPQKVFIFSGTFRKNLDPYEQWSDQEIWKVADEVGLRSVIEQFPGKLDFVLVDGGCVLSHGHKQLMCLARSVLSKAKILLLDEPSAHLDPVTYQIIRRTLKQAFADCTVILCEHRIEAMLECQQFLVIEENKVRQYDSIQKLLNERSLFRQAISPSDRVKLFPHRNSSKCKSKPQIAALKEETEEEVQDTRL
# runDescription: H441 cell ΔF508-CFTR-HRP cell surface assay (Emax and EC50)
attributeMeasured: EC50 (nM)
Please respond with the number in nM and leave the unit unwritten.

Query block: Reported EC50 for `CC(C)(C)C[C@H](NC(=O)c1ccc2ccccc2c1OC[C@H]1CC[C@H](C(F)(F)F)CC1)C(=O)O` : what is it?
Result block: 3400

Query block: Could you share which EC50 value was measured for `CCC(C)(C)[C@H](NC(=O)c1ccc2ccc(C(F)(F)F)cc2c1OCc1ccc(C(F)(F)F)cc1)C(=O)O` ?
Result block: 100

Query block: What measured EC50 goes with `CC(C)(C)C[C@H](NC(=O)c1ccc2ccccc2c1OCc1ccc(SC(F)(F)F)cc1)C(=O)O` ?
Result block: 1100

Query block: Endpoint output: EC50 of `O=C(N[C@H](C(=O)O)C1CCCC1)c1ccc2ccccc2c1OCc1ccc(S(F)(F)(F)(F)F)cc1` . Value?
Result block: 2300

----------
# testSystem: human Cystic Fibrosis Transmembrane Conductance Regulator (CFTR) harboring the ΔF508 mutation (Homo sapiens, UniProt P13569, DEL508-508)
# runDescription: H441 cell ΔF508-CFTR-HRP cell surface assay (Emax and EC50)
attributeMeasured: pEC50
// pEC50: -log10(molar conc.)

Query block: Looking for the measured pEC50 of `CC(C)(C)[C@H](NC(=O)c1ccc2ccc(C(F)F)cc2c1OCc1ccc(OC(F)(F)F)cc1)C(=O)O` , can you help?
Result block: 7.00

Query block: Give the measured pEC50 of `O=C(N[C@@H](Cc1ccccc1)C(=O)O)c1ccc2ccccc2c1OCc1ccc(Br)cc1` .
Result block: 6.52

Query block: Entry `CC(C)(C)[C@H](NC(=O)c1ccc2cc(F)ccc2c1OCC1CCCCC1)C(=O)O` has what pEC50?
Result block: 5.74

Query block: Recorded pEC50 of `O=C(N[C@@H](Cc1ccccc1)C(=O)O)c1ccc2ccccc2c1OCc1cccc(C(F)(F)F)c1` , please.
Result block: 4.80

Query block: Fill in: pEC50 of `CC(C)(S[C@@H]1C[C@@H]2CC[C@H]1C2)[C@H](NC(=O)c1ccc2ccccc2c1OCc1ccc(SC(F)(F)F)cc1)C(=O)O` is ___
Result block: 6.52

Query block: What value of pEC50 has been reported for the following molecule? `CC(C)(C)[C@H](NC(=O)c1ccc2ccc(C#N)cc2c1OCc1ccc(OC(F)(F)F)cc1)C(=O)O`
Result block: 6.15

Query block: // query pEC50 value for entry `CC(C)(C)[C@H](NC(=O)c1ccc2cc(F)ccc2c1OCc1ccc(C(F)(F)F)cc1)C(=O)O`
Result block: 6.22

----------
# testSystem: human Cystic Fibrosis Transmembrane Conductance Regulator (CFTR) harboring the ΔF508 mutation (Homo sapiens, UniProt P13569, DEL508-508)
# Construct: expressed in transfected cells; host or cells: H441 carcinoma line (G418-selected)
# runDescription: H441 cell ΔF508-CFTR-HRP cell surface assay (Emax and EC50)
# Format: cell-based
# conditionParameters: NCI-H441, NA = Not active
attributeMeasured: Emax (%)
Report only the number, with the unit % understood.

Query block: What value of Emax has been recorded for this entry: O=C(NC(C(=O)O)C1(C(F)(F)F)CC1)c1ccc2ccc(F)cc2c1OCc1ccc(OC(F)(F)F)cc1 (stereo not shown) [Example 240]
Result block: 122

Query block: I would be grateful if you could share the reported Emax for O=C(N[C@H](C(=O)O)c1ccccc1)c1ccc2ccccc2c1OCc1ccc(C(F)(F)F)cc1 [Example 140] .
Result block: 82.9

Query block: Query (molecule): COC(=O)[C@H](Cc1ccccc1)NC(=O)c1ccc2ccccc2c1OCc1ccc(Cl)c(Cl)c1 [Example 101] ; field requested: Emax
Result block: 79.1

Query block: Would you kindly share the measured Emax for C#CC(C)(C)C(NC(=O)c1ccc2ccccc2c1OCc1ccc(SC(F)(F)F)cc1)C(=O)O (stereo not shown) [Example 227] ?
Result block: 160

Query block: Which Emax is reported for this molecule? CC(C)(C)[C@H](NC(=O)c1ccc2cc(F)ccc2c1OCc1ccc(C(F)(F)F)cc1)C(=O)O [Example 27]
Result block: 134

Query block: Query (molecule): CC(C)(C)[C@H](NC(=O)c1ccc2cc(F)ccc2c1OCc1ccc(OC(F)(F)F)cc1)C(=O)O [Example 19] ; field requested: Emax
Result block: 48.3

Query block: Endpoint output: Emax of CC(C)(C)[C@H](NC(=O)c1ccc2ccccc2c1OCC1CCC(CO)CC1)C(=O)O (stereo partly shown) [Example 29] . Value?
Result block: 27.8

Ref: patent US12630498B2
